- tgt: human P5C reductase 1 (PYCR1) (Homo sapiens)
- Construct: His-tag; made in house; host or cells: E. coli BL21(DE3) pLysS
- experiment description: P5C reductase assay (P5C-dependent oxidation of NAD(P)H)
- Format: biochemical
- conditions: IC50 values, abstract, cofactor not specified
measured metric: IC50

[
  {
    "smiles record": "O=P(O)(O)C(Nc1cc(Br)cc(Br)c1)P(=O)(O)O",
    "IC50": "< 1 µM"
  }
]

Documented IC50 of O=P(O)(O)C(Nc1cc(Cl)cc(Cl)c1)P(=O)(O)O : < 1 µM

---

In this section, each of the compounds is paired with its reported IC50.
- tgt: human P5C reductase 1 (PYCR1) (Homo sapiens, UniProt P32322)
- Construct: His-tag; made in house; host or cells: E. coli BL21(DE3) pLysS
- Sequence (P32322 whole entry): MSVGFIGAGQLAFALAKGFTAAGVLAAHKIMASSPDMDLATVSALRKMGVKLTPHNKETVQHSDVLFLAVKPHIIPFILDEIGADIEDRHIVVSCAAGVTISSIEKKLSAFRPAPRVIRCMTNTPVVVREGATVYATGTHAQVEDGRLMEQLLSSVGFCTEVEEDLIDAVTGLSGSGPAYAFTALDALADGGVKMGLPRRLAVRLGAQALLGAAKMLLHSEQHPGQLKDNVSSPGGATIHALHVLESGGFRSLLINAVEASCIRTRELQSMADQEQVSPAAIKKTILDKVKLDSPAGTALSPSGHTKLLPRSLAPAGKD
- experiment description: P5C reductase assay (P5C-dependent oxidation of NAD(P)H)
- Type: biochemical
- conditions: IC50, NADPH as the electron donor
Answer with the number, then the unit.

[
  {
    "compound": "O=P(O)(O)C(Nc1cc(Br)cc(Br)c1)P(=O)(O)O",
    "tgt": "human P5C reductase 1 (PYCR1) (Homo sapiens, UniProt P32322)",
    "IC50": "0.39 µM"
  }
]

The recorded IC50 with human P5C reductase 1 (PYCR1) (Homo sapiens, UniProt P32322) for C#CCN(C)Cc1ccc(Br)cc1 [4-bromopargyline, reference compound] was 9 µM

The recorded IC50 with human P5C reductase 1 (PYCR1) (Homo sapiens, UniProt P32322) for C#CCN(C)Cc1ccccc1 [Pargyline, reference compound] was 81 µM

The recorded IC50 with human P5C reductase 1 (PYCR1) (Homo sapiens, UniProt P32322) for O=P(O)(O)C(Nc1cc(Cl)cc(Cl)c1)P(=O)(O)O was 0.74 µM
